Consider the following molecules and their measured IC50 readings.
biological target: purified Human plasma kallikrein (Homo sapiens (Human)); assay: Kallikrein Assay; details: purified Human plasma kallikrein 0.5 nM, substrate Acetyl-K-P-R-AFC, pH 7.4; read-out: P. KLK IC50
Sequence (P03952 391-638): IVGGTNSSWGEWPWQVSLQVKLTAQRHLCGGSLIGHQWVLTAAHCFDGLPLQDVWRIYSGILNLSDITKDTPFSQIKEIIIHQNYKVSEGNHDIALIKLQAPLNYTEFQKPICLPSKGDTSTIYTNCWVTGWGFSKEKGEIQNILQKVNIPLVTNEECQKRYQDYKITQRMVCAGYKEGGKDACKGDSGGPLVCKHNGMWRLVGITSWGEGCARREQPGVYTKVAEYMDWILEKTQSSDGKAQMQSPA
Sequence (P03952 20-390 partner): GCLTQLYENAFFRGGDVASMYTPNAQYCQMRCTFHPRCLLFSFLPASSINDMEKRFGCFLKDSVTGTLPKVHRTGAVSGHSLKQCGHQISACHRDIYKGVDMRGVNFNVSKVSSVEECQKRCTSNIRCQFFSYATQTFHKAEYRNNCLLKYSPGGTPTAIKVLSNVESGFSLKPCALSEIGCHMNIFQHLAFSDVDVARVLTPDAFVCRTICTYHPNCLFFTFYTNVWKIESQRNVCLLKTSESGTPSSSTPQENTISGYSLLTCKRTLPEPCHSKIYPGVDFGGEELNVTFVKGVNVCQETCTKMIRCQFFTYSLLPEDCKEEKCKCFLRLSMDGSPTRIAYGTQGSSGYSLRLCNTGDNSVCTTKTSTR
ENDPOINT NAME: IC50

| MOLECULE | REPORTED |
| --- | --- |
| O=C(O)c1ccc(NC(=O)C(CC2CC2)c2ccc(-c3cc(Cl)ccc3-n3cnnn3)c[n+]2[O-])cc1F (single isomer, unassigned) [Example 45] | 17.6 nM |
| O=C(O)c1ccc(NC(=O)C(CC2CC2)c2ccc(-c3cc(Cl)ccc3-c3cnco3)c[n+]2[O-])cc1 (single isomer, unassigned) [Example 35] | 408 nM |
| O=C(O)c1ccc(NC(=O)C(CC2CC2)c2ccc(-c3c(-n4cnnn4)ccc(Cl)c3F)c[n+]2[O-])cc1 (racemic) [Example 50] | 25.1 nM |
